- test: Acute toxicity in ICR mouse assessed as survival rate at 275 mg/kg, ip measured on day 14 (reference value: 100%)
- Type: organism-based
- experimental.parameters: in vivo
reported.endpoint: survival at 14 day (%)
Give bare numbers, in %.

What value of measured survival at 14 day is listed for COc1ccc([C@H]2[C@H](C)C(=O)N2c2cc(OC)c(OC)c(OC)c2)cc1O ?
10

====

What pIC50 was measured for each of the following?
- Test system: MDA-MB-231
- test: Antiproliferative activity against human MDA-MB-231 cells after 48 hrs by MTT assay
- Type: functional, cell-based
- experimental.parameters: MDA-MB-231, 48 h
Numbers only, as −log10 of the molar value.

These solved cases illustrate the format of a correct answer.
INSERT INTO assay_data (smiles_code, test_value) VALUES
  ('COc1ccc([C@H]2[C@H](CO)C(=O)N2c2cc(OC)c(OC)c(OC)c2)cc1N', 7.57),
  ('C=C1C(=O)N(c2cc(OC)cc(OC)c2)[C@H]1c1ccc(OC)c(O)c1', 6.90),
  ('COc1ccc([C@H]2[C@H](n3cc(CO)nn3)C(=O)N2c2cc(OC)c(OC)c(OC)c2)cc1O', 7.55);

Field: pIC50. Fill in for each record below.
1. COc1ccc([C@@H]2CC(=O)N2c2cc(OC)c(OC)c(OC)c2)cc1O
2. COc1ccc([C@H]2[C@H](C)C(=O)N2c2cc(OC)c(OC)c(OC)c2)cc1O
3. C=C1C(=O)N(c2cc(OC)c(OC)c(OC)c2)[C@H]1c1ccc(OC)c(OCC)c1
4. C=C1C(=O)N(c2cc(OC)c(OC)c(OC)c2)[C@H]1c1ccc(OC)c(F)c1

1: 7.55; 2: 8.52; 3: 6.02; 4: 6.95

====

What pIC50 was measured for each of the following?
- System: MDA-MB-231
- test: Antiproliferative activity against human MDA-MB-231 cells after 48 hrs by MTT assay
- Assay type: functional, cell-based
- experimental.parameters: MDA-MB-231, 48 h
Answers are plain numbers, as −log10 of the molar value.

These solved cases illustrate the format of a correct answer.
INSERT INTO measurements (smiles_code, test_value) VALUES
  ('COc1ccc([C@H]2[C@H](Br)C(=O)N2c2cc(OC)c(OC)c(OC)c2)cc1O', 8.00),
  ('C=C1C(=O)N(c2cc(OC)c(OC)c(OC)c2)[C@H]1c1ccc(OC)c(OS(=O)(=O)c2ccc(C)cc2)c1', 4.89);

Now, please, on to the next compound.
What value of measured pIC50 is listed for COc1ccc([C@H]2[C@H](NC(C)=O)C(=O)N2c2cc(OC)c(OC)c(OC)c2)cc1O ?
7.33

====

- test: Acute toxicity in ICR mouse assessed as survival rate at 200 mg/kg, ip measured on day 14 (reference value: 100%)
- Format: organism-based
- experimental.parameters: in vivo
reported.endpoint: survival at 14 day (%)
Numbers only, in %.

What value of measured survival at 14 day is listed for COc1ccc([C@H]2[C@H](C)C(=O)N2c2cc(OC)c(OC)c(OC)c2)cc1O ?
30

====

- test: Acute toxicity in ICR mouse assessed as survival rate at 25 mg/kg, ip measured on day 14 (reference value: 100%)
- Type: organism-based
- experimental.parameters: in vivo
reported.endpoint: survival at 14 day (%)
One number for each entry, in %.

What value of measured survival at 14 day is listed for COc1ccc([C@H]2[C@H](CO)C(=O)N2c2cc(OC)c(OC)c(OC)c2)cc1O ?
100
